Tested on: hTERT-HMEC
Experiment: percentage of EdU-negative (G0-arrested) nuclei per well, 72 h; higher = more G0 arrest
Details: protein concentration 0.03125 µM; reference: sequence is the full UniProt precursor, the tested protein was the secreted form or ectodomain

SEQ STRING | MEASUREMENT UNITS | percentage of EdU-negative
MLSCRLQCALAALSIVLALGCVTGAPSDPRLRQFLQKSLAAAAGKQELAKYFLAELLSEPNQTENDALEPEDLSQAAEQDEMRLELQRSANSNPAMAPRERKAGCKNFFWKTFTSC | % | 5.72
MWPLWRLVSLLALSQALPFEQRGFWDFTLDDGPFMMNDEEASGADTSGVLDPDSVTPTYSAMCPFGCHCHLRVVQCSDLGLKSVPKEISPDTTLLDLQNNDISELRKDDFKGLQHLYALVLVNNKISKIHEKAFSPLRKLQKLYISKNHLVEIPPNLPSSLVELRIHDNRIRKVPKGVFSGLRNMNCIEMGGNPLENSGFEPGAFDGLKLNYLRISEAKLTGIPKDLPETLNELHLDHNKIQAIELEDLLRYSKLYRLGLGHNQIRMIENGSLSFLPTLRELHLDNNKLARVPSGLPDLKLLQVVYLHSNNITKVGVNDFCPMGFGVKRAYYNGISLFNNPVPYWEVQPATFRCVTDRLAIQFGNYKK | % | 4.62
MGFQKFSPFLALSILVLLQAGSLHAAPFRSALESSPADPATLSEDEARLLLAALVQDYVQMKASELEQEQEREGSSLDSPRSKRCGNLSTCMLGTYTQDFNKFHTFPQTAIGVGAPGKKRDMSSDLERDHRPHVSMPQNAN | % | 5.19
MIPAKDMAKVMIVMLAICFLTKSDGKSVKKRSVSEIQLMHNLGKHLNSMERVEWLRKKLQDVHNFVALGAPLAPRDAGSQRPRKKEDNVLVESHEKSLGEADKADVNVLTKAKSQ | % | 4.88
MEMLQGLLLLLLLSMGGAWASREPLRPWCHPINAILAVEKEGCPVCITVNTTICAGYCPTMMRVLQAVLPPLPQVVCTYRDVRFESIRLPGCPRGVDPVVSFPVALSCRCGPCRRSTSDCGGPKDHPLTCDHPQLSGLLFL | % | 5.24
MRFLAATFLLLALSTAAQAEPVQFKDCGSVDGVIKEVNVSPCPTQPCQLSKGQSYSVNVTFTSNIQSKSSKAVVHGILMGVPVPFPIPEPDGCKSGINCPIQKDKTYSYLNKLPVKSEYPSIKLVVEWQLQDDKNQSLFCWEIPVQIVSHL | % | 4.48
MIPGGLSEAKPATPEIQEIVDKVKPQLEEKTNETYGKLEAVQYKTQVVAGTNYYIKVRAGDNKYMHLKVFKSLPGQNEDLVLTGYQVDKNKDDELTGF | % | 5.99
MRRMWATQGLAVALALSVLPGSRALRPGDCEVCISYLGRFYQDLKDRDVTFSPATIENELIKFCREARGKENRLCYYIGATDDAATKIINEVSKPLAHHIPVEKICEKLKKKDSQICELKYDKQIDLSTVDLKKLRVKELKKILDDWGETCKGCAEKSDYIRKINELMPKYAPKAASARTDL | % | 5.21

###

System: hTERT-HMEC;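 further: secreted proteins added to cultured cells, EdU pulse at the end, nuclei found by Hoechst imaging, EdU status from nuclear versus surrounding ring intensity ratio, PBS as neutral control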
Assay: percentage of EdU-negative (G0-arrested) nuclei per well, 72 h; higher = more G0 arrest
Details: protein concentration 0.3125 µM; reference: sequence is the full UniProt precursor, the tested protein was the secreted form or ectodomain
PROPERTY LABEL: percentage of EdU-negative (%)

SEQ STRING | SYSTEM TESTED | TEST VALUE
MLPRVGCPALPLPPPPLLPLLLLLLGASGGGGGARAEVLFRCPPCTPERLAACGPPPVAPPAAVAAVAGGARMPCAELVREPGCGCCSVCARLEGEACGVYTPRCGQGLRCYPHPGSELPLQALVMGEGTCEKRRDAEYGASPEQVADNGDDHSEGGLVENHVDSTMNMLGGGGSAGRKPLKSGMKELAVFREKVTEQHRQMGKGGKHHLGLEEPKKLRPPPARTPCQQELDQVLERISTMRLPDERGPLEHLYSLHIPNCDKHGLYNLKQCKMSLNGQRGECWCVNPNTGKLIQGAPTIRGDPECHLFYNEQQEARGVHTQRMQ | hTERT-HMEC | 6.96
MGHPPLLPLLLLLHTCVPASWGLRCMQCKTNGDCRVEECALGQDLCRTTIVRLWEEGEELELVEKSCTHSEKTNRTLSYRTGLKITSLTEVVCGLDLCNQGNSGRAVTYSRSRYLECISCGSSDMSCERGRHQSLQCRSPEEQCLDVVTHWIQEGEEGRPKDDRHLRGCGYLPGCPGSNGFHNNDTFHFLKCCNTTKCNEGPILELENLPQNGRQCYSCKGNSTHGCSSEETFLIDCRGPMNQCLVATGTHEPKNQSYMVRGCATASMCQHAHLGDAFSMNHIDVSCCTKSGCNHPDLDVQYRSGAAPQPGPAHLSLTITLLMTARLWGGTLLWT | hTERT-HMEC | 5.79
MKYTSYILAFQLCIVLGSLGCYCQDPYVKEAENLKKYFNAGHSDVADNGTLFLGILKNWKEESDRKIMQSQIVSFYFKLFKNFKDDQSIQKSVETIKEDMNVKFFNSNKKKRDDFEKLTNYSVTDLNVQRKAIHELIQVMAELSPAAKTGKRKRSQMLFRGRRASQ | hTERT-HMEC | 96.9
MPWPLLLLLAVSGAQTTRPCFPGCQCEVETFGLFDSFSLTRVDCSGLGPHIMPVPIPLDTAHLDLSSNRLEMVNESVLAGPGYTTLAGLDLSHNLLTSISPTAFSRLRYLESLDLSHNGLTALPAESFTSSPLSDVNLSHNQLREVSVSAFTTHSQGRALHVDLSHNLIHRLVPHPTRAGLPAPTIQSLNLAWNRLHAVPNLRDLPLRYLSLDGNPLAVIGPGAFAGLGGLTHLSLASLQRLPELAPSGFRELPGLQVLDLSGNPKLNWAGAEVFSGLSSLQELDLSGTNLVPLPEALLLHLPALQSVSVGQDVRCRRLVREGTYPRRPGSSPKVALHCVDTRDSAARGPTIL [Q8WUA8] | hTERT-HMEC | 5.25
MRALVLLLSLFLLGGQAQHVSDWTYSEGALDEAHWPQHYPACGGQRQSPINLQRTKVRYNPSLKGLNMTGYETQAGEFPMVNNGHTVQISLPSTMRMTVADGTVYIAQQMHFHWGGASSEISGSEHTVDGIRHVIEIHIVHYNSKYKSYDIAQDAPDGLAVLAAFVEVKNYPENTYYSNFISHLANIKYPGQRTTLTGLDVQDMLPRNLQHYYTYHGSLTTPPCTENVHWFVLADFVKLSRTQVWKLENSLLDHRNKTIHNDYRRTQPLNHRVVESNFPNQEYTLGSEFQFYLHKIEEILDYLRRALN | hTERT-HMEC | 4.6

Each recorded value in this set is attributed to the supplement of paper PMC11316812.
